# System Under Test: TbSir2rp1 (Trypanosoma brucei brucei)
# Construct: The TbSir2rp1 gene was cloned into the pET24(+) expression plasmid (Novagen); His tag; made in house; host or cells: Escherichia coli BL21-Codon Plus (DE3)-RIL
# Sequence (Q57V41 whole entry): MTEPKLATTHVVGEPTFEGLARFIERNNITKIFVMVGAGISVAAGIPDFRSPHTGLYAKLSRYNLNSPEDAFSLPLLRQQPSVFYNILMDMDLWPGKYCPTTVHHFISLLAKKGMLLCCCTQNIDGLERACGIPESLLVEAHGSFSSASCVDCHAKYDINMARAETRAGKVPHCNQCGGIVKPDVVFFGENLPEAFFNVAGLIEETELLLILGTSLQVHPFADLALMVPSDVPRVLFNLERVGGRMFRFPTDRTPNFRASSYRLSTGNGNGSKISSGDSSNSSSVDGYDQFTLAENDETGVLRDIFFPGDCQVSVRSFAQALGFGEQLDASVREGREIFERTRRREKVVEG
# Protocol Description: biochemical
# Condition Details: IC50, TbSir2rp1; enzyme 1 μM, NAD+ 100 μM, acetylated peptide 50 μM, 37 °C, 2 h
pIC50: −log10 of the molar value.
Assay Readout: pIC50

• Sc1nc2ccccc2s1 = 3.90

====

# System Under Test: TbSir2rp1 (Trypanosoma brucei brucei)
# Construct: The TbSir2rp1 gene was cloned into the pET24(+) expression plasmid (Novagen); His tag; made in house; host or cells: Escherichia coli BL21-Codon Plus (DE3)-RIL
# Protocol Description: biochemical
# Condition Details: read-out: % Inhibition TbSir2rp1, Table S2, complete fragment library, single concentration of 500 μM
Quick reference for inhibition at 500 µM among some compounds
Assay Readout: inhibition at 500 µM (%)

• Clc1cc2cn[nH]c2cn1 [Fragment 7] = 61
• CC1(C)CCC2=C(O1)c1ccccc1C(=O)C2=O [O=C1C2=C(OC(C)(C)CC2)C3=CC=CC=C3C1=O] = 43
• N=C(N)N/N=C/c1cccs1 [Fragment 10] = 56
• Cc1ccc(S(=O)(=O)n2cccn2)cc1 [CC1=CC=C(S(N2N=CC=C2)(=O)=O)C=C1] = 8.4
• NC(=O)c1cnccn1 [O=C(C1=NC=CN=C1)N] = 22
• C/C(=N\NC(N)=O)c1ccncc1 [C/C(C1=CC=NC=C1)=N\NC(N)=O] = 31
• N/C(=N/c1ccccc1)Nc1ccccc1 [N/C(NC1=CC=CC=C1)=N/C2=CC=CC=C2] = 2.6
• Nc1nnc(-c2ccccc2)o1 [NC1=NN=C(O1)C2=CC=CC=C2] = 16
• Nc1cc2nc(-c3cccc(C(F)(F)F)c3)cn2cn1 = 19
• CC(C)Cc1ccc(C(C)C(=O)O)cc1 (stereo not shown) [CC(C1=CC=C(CC(C)C)C=C1)C(O)=O] = -2.1
